subject of test: E-selectin/Ig chimera (Homo sapiens, UniProt P16581)
Sequence (P16581 22-556): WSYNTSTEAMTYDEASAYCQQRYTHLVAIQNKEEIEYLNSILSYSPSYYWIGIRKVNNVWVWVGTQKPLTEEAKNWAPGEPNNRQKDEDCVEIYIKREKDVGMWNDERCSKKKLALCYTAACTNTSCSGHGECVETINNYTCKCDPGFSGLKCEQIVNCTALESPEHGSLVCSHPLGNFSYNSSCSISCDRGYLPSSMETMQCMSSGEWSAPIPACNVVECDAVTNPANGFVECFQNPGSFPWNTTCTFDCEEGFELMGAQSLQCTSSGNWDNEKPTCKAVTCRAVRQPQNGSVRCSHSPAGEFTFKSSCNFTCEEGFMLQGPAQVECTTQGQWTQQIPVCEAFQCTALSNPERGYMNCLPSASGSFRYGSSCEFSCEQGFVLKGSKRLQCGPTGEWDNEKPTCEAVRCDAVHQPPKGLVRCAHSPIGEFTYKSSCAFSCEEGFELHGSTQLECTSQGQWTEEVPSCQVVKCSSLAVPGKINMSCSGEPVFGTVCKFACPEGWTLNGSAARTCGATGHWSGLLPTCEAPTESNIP
test method notes: E-Selectin Activity - Alternative Binding Assay (inhibition of sLea binding to immobilized E-selectin/Ig chimera)
particulars: concentration required to inhibit binding of biotinylated sLea polyacrylamide/streptavidin-HRP conjugate to immobilized E-selectin by 50%; absorbance 450 nm
endpoint: IC50 (nM)
API: value field is a number in nM; no unit string.

q: Please list IC50 recorded for the compound CCC1CCCC(OC2OC(CO)C(O)C(OC(CC3CCCCC3)C(=O)O)C2OC(=O)c2ccccc2)C1OC1OC(C(F)(F)F)C(O)C(O)C1O (stereo not shown)
a: 700
